molecular target: Serine/threonine-protein kinase PLK4 (Homo sapiens, UniProt O00444); assay: Inhibition of PLK4 (unknown origin) incubated for 1 hr in presence of kinase tracer 236 by FRET assay
Sequence (O00444 whole entry): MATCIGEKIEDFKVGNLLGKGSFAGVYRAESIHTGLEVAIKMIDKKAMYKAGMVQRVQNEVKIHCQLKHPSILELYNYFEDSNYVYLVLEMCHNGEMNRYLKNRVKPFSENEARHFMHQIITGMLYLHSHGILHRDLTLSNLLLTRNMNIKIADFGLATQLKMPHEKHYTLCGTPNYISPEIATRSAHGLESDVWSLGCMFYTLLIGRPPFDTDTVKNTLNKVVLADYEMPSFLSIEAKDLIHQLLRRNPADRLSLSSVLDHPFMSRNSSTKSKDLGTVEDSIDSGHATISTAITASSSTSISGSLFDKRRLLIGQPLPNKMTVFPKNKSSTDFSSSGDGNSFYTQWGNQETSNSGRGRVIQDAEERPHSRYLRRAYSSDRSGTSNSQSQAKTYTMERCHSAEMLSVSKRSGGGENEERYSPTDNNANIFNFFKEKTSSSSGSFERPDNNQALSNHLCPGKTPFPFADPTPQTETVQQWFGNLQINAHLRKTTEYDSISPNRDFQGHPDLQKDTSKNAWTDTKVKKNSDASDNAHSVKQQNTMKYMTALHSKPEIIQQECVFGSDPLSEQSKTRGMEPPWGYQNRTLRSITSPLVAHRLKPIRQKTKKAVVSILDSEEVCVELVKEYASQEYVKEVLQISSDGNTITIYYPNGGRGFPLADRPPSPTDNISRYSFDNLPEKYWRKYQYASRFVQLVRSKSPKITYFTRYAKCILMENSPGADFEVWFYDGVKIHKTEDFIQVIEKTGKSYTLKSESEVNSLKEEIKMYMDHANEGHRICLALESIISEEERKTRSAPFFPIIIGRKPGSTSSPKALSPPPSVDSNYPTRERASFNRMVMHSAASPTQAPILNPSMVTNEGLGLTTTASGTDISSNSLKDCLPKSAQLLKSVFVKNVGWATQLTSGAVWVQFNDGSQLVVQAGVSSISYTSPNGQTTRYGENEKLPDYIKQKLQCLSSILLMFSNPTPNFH
assay endpoint: IC50 (nM)

Answered examples (6):
| compound | assay endpoint | observed |
| --- | --- | --- |
| Cc1cc(Nc2nc(NCc3ccc(F)cc3F)nc3c2cnn3C2CCN(C(=O)c3ccc(C4CCN(c5ccc6c(c5)C(=O)N(C5CCC(=O)NC5=O)C6=O)CC4)cc3)CC2)n[nH]1 (centres undefined) | IC50 | 82.7 |
| Cc1cc(Nc2nc(NCc3ccc(F)cc3F)nc3c2cnn3C2CCN(C(=O)CCOCCOc3ccc4c(c3)C(=O)N(C3CCC(=O)NC3=O)C4=O)CC2)n[nH]1 (centres undefined) | IC50 | 3.6 |
| Cc1cc(Nc2nc(NCc3ccc(F)cc3F)nc3c2cnn3C2CCN(C(=O)CC3CC4(C3)CN(c3ccc5c(c3)C(=O)N(C3CCC(=O)NC3=O)C5=O)C4)CC2)n[nH]1 (centres undefined) | IC50 | 61.1 |
| Cc1cc(Nc2nc(NCc3ccc(F)cc3F)nc3c2cnn3C2CCN(C(=O)C3CN(c4ccc5c(c4)C(=O)N(C4CCC(=O)NC4=O)C5=O)C3)CC2)n[nH]1 (centres undefined) | IC50 | 18.9 |
| Cc1cc(Nc2nc(NCc3ccc(F)cc3F)nc3c2cnn3C2CCN(CC3CN(c4ccc5c(c4)C(=O)N(C4CCC(=O)NC4=O)C5=O)C3)CC2)n[nH]1 (centres undefined) | IC50 | 10.1 |
| Cc1cc(Nc2nc(NCc3ccc(F)cc3F)nc3c2cnn3C2CCN(C(=O)CCCCCCCOc3ccc4c(c3)C(=O)N(C3CCC(=O)NC3=O)C4=O)CC2)n[nH]1 (centres undefined) | IC50 | 42.2 |

P: Cc1cc(Nc2nc(NCc3ccc(F)cc3F)nc3c2cnn3C2CCN(C(=O)Cc3ccc(N4CCN(c5ccc6c(c5)C(=O)N(C5CCC(=O)NC5=O)C6=O)CC4)cc3)CC2)n[nH]1 (centres undefined)
Q: Cc1cc(Nc2nc(NCc3ccc(F)cc3F)nc3c2cnn3C2CCN(C(=O)CCCOc3ccc4c(c3)C(=O)N(C3CCC(=O)NC3=O)C4=O)CC2)n[nH]1 (centres undefined)
R: Cc1cc(Nc2nc(NCc3ccc(F)cc3F)nc3c2cnn3C2CCN(C(=O)CCCCCCCCCCCOc3ccc4c(c3)C(=O)N(C3CCC(=O)NC3=O)C4=O)CC2)n[nH]1 (centres undefined)
S: Cc1cc(Nc2nc(NCc3ccc(F)cc3F)nc3c2cnn3C2CCN(C(=O)CC3CN(c4ccc5c(c4)C(=O)N(C4CCC(=O)NC4=O)C5=O)C3)CC2)n[nH]1 (centres undefined)
T: Cc1cc(Nc2nc(NCc3ccc(F)cc3F)nc3c2cnn3C2CCN(C(=O)CCCCCCCCCCCCCCCOc3ccc4c(c3)C(=O)N(C3CCC(=O)NC3=O)C4=O)CC2)n[nH]1 (centres undefined)
query: Please list these in order of increasing IC50. Thank you! Note for the reader: the ranking is given by listing the labels in the order requested.
result: Q, S, T, P, R
(Q: 1.5 nM, S: 12.9 nM, T: 121 nM, P: 216 nM, R: 531 nM)

a: Cc1cc(Nc2nc(NCc3ccc(F)cc3F)nc3c2cnn3C2CCN(C(=O)CCCCCCOc3ccc4c(c3)C(=O)N(C3CCC(=O)NC3=O)C4=O)CC2)n[nH]1 (centres undefined)
b: Cc1cc(Nc2nc(NCc3ccc(F)cc3F)nc3c2cnn3C2CCN(Cc3ccc(C4CCN(c5ccc6c(c5)C(=O)N(C5CCC(=O)NC5=O)C6=O)CC4)cc3)CC2)n[nH]1 (centres undefined)
c: Cc1cc(Nc2nc(NCc3ccc(F)cc3F)nc3c2cnn3C2CCN(CC3CC4(C3)CN(c3ccc5c(c3)C(=O)N(C3CCC(=O)NC3=O)C5=O)C4)CC2)n[nH]1 (centres undefined)
query: Rank descending by IC50. Returns: the labels arranged in the requested order.
result: b, c, a

1: Cc1cc(Nc2nc(NCc3ccc(F)cc3F)nc3c2cnn3C2CCN(C(=O)C3CCN(c4ccc5c(c4)C(=O)N(C4CCC(=O)NC4=O)C5=O)CC3)CC2)n[nH]1 (centres undefined)
2: Cc1cc(Nc2nc(NCc3ccc(F)cc3F)nc3c2cnn3C2CCN(CC3CCN(c4ccc5c(c4)C(=O)N(C4CCC(=O)NC4=O)C5=O)CC3)CC2)n[nH]1 (centres undefined)
query: Please indicate which entry, 1 or 2 , has the lower recorded IC50 value. Selection: enter the item's label.
result: 2

P: Cc1cc(Nc2nc(NCc3ccc(F)cc3F)nc3c2cnn3C2CCN(C(=O)CC3CCN(c4ccc5c(c4)C(=O)N(C4CCC(=O)NC4=O)C5=O)C3)CC2)n[nH]1 (centres undefined)
Q: Cc1cc(Nc2nc(NCc3ccc(F)cc3F)nc3c2cnn3C2CCN(C(=O)CC3CCN(c4ccc5c(c4)C(=O)N(C4CCC(=O)NC4=O)C5=O)CC3)CC2)n[nH]1 (centres undefined)
R: Cc1cc(Nc2nc(NCc3ccc(F)cc3F)nc3c2cnn3C2CCN(C(=O)COc3ccc4c(c3)C(=O)N(C3CCC(=O)NC3=O)C4=O)CC2)n[nH]1 (centres undefined)
S: Cc1cc(Nc2nc(NCc3ccc(F)cc3F)nc3c2cnn3C2CCN(C(=O)COCCOc3ccc4c(c3)C(=O)N(C3CCC(=O)NC3=O)C4=O)CC2)n[nH]1 (centres undefined)
query: Reorder: IC50, max to min. Response format: the labels, sorted as the prompt asks.
result: Q, P, R, S
(Q: 19.1 nM, P: 8.1 nM, R: 5.6 nM, S: 1.9 nM)

P: Cc1cc(Nc2nc(NCc3ccc(F)cc3F)nc3c2cnn3C2CCN(C(=O)COCCOCCOc3ccc4c(c3)C(=O)N(C3CCC(=O)NC3=O)C4=O)CC2)n[nH]1 (centres undefined)
Q: Cc1cc(Nc2nc(NCc3ccc(F)cc3F)nc3c2cnn3C2CCN(C(=O)C3CCN(c4ccc5c(c4)C(=O)N(C4CCC(=O)NC4=O)C5=O)C3)CC2)n[nH]1 (centres undefined)
query: Looking only at measured IC50, which entry is lower, P or Q ? Return value: the label identifying the chosen record.
result: Q
(Q: 5.5 nM, P: 9.4 nM)

1: Cc1cc(Nc2nc(NCc3ccc(F)cc3F)nc3c2cnn3C2CCN(CC3CCN(c4ccc5c(c4)C(=O)N(C4CCC(=O)NC4=O)C5=O)C3)CC2)n[nH]1 (centres undefined)
2: Cc1cc(Nc2nc(NCc3ccc(F)cc3F)nc3c2cnn3C2CCN(C(=O)CCCCOc3ccc4c(c3)C(=O)N(C3CCC(=O)NC3=O)C4=O)CC2)n[nH]1 (centres undefined)
query: Which of the two gives a bigger number for IC50: 1 or 2 ? Select an item and report its label.
result: 1
(1: 13.6 nM, 2: 2.6 nM)
